Source listed as ChEMBL document CHEMBL4049442.

Experiment: Half-life in Sprague-Dawley rat at 2 mg/kg, iv by LC-MS/MS analysis
Settings: in vivo
Measurement Label: half-life (h)

C[C@@H]1CN(c2nc(N3CCOCC3)c3sc(-c4ccn[nH]4)cc3n2)C[C@H](C)O1    1.5

---

Readings of IC50 for the listed compounds
Biological target: PI3-kinase p110-delta/p85-alpha (Homo sapiens, UniProt O00329)
Sequence (P27986 whole entry): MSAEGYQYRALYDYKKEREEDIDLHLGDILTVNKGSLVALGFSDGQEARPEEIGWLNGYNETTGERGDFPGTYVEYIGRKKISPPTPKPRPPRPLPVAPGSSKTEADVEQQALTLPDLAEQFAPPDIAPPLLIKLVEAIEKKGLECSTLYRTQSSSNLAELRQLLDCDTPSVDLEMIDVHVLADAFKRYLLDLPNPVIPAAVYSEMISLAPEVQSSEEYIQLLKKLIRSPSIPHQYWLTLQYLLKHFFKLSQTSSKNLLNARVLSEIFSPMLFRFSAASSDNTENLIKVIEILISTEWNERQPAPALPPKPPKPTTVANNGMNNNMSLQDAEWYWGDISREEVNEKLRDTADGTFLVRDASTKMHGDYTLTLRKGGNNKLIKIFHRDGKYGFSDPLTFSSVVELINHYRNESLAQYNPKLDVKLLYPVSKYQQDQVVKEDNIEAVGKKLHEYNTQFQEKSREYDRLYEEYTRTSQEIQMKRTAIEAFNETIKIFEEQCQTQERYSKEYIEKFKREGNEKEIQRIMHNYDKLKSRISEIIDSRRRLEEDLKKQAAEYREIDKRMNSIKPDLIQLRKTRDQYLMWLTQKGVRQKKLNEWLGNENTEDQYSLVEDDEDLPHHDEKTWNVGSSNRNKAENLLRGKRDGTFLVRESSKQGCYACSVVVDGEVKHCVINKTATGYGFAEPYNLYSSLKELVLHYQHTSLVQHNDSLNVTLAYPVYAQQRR
Sequence (O00329 whole entry): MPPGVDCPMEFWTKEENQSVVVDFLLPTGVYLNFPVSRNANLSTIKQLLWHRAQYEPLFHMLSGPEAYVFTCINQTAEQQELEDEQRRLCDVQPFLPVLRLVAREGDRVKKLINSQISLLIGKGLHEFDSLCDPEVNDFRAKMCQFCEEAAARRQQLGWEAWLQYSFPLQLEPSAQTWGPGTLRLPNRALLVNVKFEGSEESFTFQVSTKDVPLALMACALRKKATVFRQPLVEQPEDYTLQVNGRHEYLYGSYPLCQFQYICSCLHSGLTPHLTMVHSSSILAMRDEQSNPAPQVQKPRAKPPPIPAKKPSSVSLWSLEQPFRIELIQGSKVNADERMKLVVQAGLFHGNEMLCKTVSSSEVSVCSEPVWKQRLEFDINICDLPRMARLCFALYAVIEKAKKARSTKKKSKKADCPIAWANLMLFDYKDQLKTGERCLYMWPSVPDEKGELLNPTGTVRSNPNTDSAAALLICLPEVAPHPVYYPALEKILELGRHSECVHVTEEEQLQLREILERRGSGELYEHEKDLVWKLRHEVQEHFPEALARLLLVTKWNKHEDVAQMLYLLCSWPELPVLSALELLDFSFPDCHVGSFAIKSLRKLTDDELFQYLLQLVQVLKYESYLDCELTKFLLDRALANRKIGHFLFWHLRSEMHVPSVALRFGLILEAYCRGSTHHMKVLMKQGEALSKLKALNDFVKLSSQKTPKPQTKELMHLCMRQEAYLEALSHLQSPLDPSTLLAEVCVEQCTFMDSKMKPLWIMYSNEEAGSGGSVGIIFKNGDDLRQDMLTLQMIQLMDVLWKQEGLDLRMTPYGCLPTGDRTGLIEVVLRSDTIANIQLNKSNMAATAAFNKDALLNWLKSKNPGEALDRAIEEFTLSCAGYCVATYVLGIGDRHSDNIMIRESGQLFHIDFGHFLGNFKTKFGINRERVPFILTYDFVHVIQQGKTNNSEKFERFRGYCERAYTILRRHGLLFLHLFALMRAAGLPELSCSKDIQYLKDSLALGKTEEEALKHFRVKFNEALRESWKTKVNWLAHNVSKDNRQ
Assay: Inhibition of recombinant full length human N-terminal His6-tagged PI3K p110delta/p85alpha expressed in baculovirus infected Sf21 cells using PIP2 as substrate after 2 hrs by kinase-glo luminescence assay
Measurement Label: IC50

C[C@@H]1CN(c2nc(N3CCOCC3)c3sc(-c4cnc(N)nc4)cc3n2)C[C@H](C)O1    171 nM
C[C@@H]1CN(c2nc(N3CCOCC3)c3sc(-c4ccn[nH]4)cc3n2)C[C@H](C)O1    10 nM

---

Readings of pIC50 for the listed molecules
Target: Serine/threonine-protein kinase mTOR (Homo sapiens)
Assay: Inhibition of recombinant human N-terminal FLAG-tagged mTOR (1362 to end residues) expressed in baculovirus infected Sf21 insect cells assessed as reduction in ULight-4E-BP1 phosphorylation after 30 mins by lance ultra assay
pIC50: −log10 of the molar value.
Measurement Label: pIC50

CCC(O)c1cc2nc(N3C[C@@H](C)O[C@@H](C)C3)nc(N3CCOCC3)c2s1 (stereo partly drawn)    < 5.70
C[C@@H]1CN(c2nc(N3CCOCC3)c3sc(-c4ccsc4)cc3n2)C[C@H](C)O1    < 5.70
OCc1cc2nc(N3CCOCC3)nc(N3CCOCC3)c2s1    < 5.70

---

Molecular target: Serine/threonine-protein kinase mTOR (Homo sapiens, UniProt P42345)
Assay: Inhibition of recombinant human N-terminal FLAG-tagged mTOR (1362 to end residues) expressed in baculovirus infected Sf21 insect cells assessed as reduction in ULight-4E-BP1 phosphorylation after 30 mins by lance ultra assay
Readings of IC50 for the listed compounds
Measurement Label: IC50

CS(=O)(=O)N1CCN(c2nc(N3CCOCC3)c3sc(CO)cc3n2)CC1    > 2000 nM
C[C@@H]1CN(c2nc(N3CCOCC3)c3sc(-c4cccc5[nH]ncc45)cc3n2)C[C@H](C)O1    > 2000 nM
c1cc2c(N3CCOCC3)nc(N3CCOCC3)nc2[nH]1    > 2000 nM
